Biological target: T1, cell-bound CD73 (human, UniProt P21589 27-549)
T1 sequence (looked up): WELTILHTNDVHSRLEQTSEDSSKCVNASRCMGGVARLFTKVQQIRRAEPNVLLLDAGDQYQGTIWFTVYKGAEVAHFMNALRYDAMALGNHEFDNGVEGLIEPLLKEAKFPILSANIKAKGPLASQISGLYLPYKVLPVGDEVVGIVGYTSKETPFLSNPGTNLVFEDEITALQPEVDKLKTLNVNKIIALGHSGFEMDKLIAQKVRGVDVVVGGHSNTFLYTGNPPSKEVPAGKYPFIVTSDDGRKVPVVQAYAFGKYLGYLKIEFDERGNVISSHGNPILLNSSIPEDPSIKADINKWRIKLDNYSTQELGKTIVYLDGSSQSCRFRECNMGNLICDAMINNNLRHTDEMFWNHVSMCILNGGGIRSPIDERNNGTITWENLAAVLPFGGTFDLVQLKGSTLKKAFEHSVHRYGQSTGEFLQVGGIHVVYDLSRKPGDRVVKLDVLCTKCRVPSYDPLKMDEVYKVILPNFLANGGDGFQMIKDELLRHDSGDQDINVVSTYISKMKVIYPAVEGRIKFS
Test: cell-based or functional assay
assay-readout: CD8 T cell proliferation [% of control], Donor D, 1 nM antibody (%)
Output spec: scalar in %, unitless text.

// below: answered binders
- binder: "C1 (antibody, human IgG1, kappa, L234A L235A, V domains shown, Humanized monoclonal antibody; also called anti-CD73 antibody C1) VH: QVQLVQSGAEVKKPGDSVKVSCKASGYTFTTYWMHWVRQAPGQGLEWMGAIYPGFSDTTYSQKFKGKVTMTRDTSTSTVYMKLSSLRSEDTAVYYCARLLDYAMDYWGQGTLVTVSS VL: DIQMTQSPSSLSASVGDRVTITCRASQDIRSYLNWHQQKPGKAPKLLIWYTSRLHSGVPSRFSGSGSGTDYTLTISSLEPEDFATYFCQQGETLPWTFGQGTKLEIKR"
  result-number: 99.5
- binder: "C4 (antibody, human IgG1, kappa, L234A L235A, V domains shown, Humanized monoclonal antibody; also called C04; inventive anti-CD73 antibody C4) VH: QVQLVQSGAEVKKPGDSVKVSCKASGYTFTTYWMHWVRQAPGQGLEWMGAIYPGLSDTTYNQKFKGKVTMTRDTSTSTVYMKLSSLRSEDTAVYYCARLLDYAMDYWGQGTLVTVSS VL: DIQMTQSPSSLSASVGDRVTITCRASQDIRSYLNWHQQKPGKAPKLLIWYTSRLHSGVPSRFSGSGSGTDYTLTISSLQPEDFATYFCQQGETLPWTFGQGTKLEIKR"
  result-number: 98.5
- binder: "C3 (antibody, human IgG1, kappa, L234A L235A, V domains shown, Humanized monoclonal antibody; also called anti-CD73 antibody C3) VH: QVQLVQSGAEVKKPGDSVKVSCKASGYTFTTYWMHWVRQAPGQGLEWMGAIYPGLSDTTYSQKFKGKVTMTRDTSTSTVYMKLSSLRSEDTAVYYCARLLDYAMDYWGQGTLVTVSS VL: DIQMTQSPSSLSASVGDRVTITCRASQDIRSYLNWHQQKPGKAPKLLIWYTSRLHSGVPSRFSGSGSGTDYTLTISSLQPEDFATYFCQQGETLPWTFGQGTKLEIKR"
  result-number: 99.3
- binder: "C5 (antibody, human IgG1, kappa, L234A L235A, V domains shown, Humanized monoclonal antibody; also called anti-CD73 antibody C5) VH: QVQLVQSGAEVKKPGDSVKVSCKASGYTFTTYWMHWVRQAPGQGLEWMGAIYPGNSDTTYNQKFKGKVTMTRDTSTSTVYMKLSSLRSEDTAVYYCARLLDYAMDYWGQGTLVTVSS VL: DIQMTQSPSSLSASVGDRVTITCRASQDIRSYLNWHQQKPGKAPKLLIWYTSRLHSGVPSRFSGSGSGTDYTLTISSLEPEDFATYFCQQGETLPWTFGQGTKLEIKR"
  result-number: 99.3
- binder: "C6 (antibody, human IgG1, kappa, L234A L235A, V domains shown, Humanized monoclonal antibody; also called anti-CD73 antibody C6) VH: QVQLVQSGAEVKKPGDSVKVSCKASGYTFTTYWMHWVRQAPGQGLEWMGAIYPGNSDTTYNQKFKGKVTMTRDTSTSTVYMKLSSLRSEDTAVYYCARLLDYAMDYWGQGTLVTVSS VL: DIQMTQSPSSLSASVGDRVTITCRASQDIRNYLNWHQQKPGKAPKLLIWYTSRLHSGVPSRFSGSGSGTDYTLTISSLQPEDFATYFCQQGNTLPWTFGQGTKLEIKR"
  result-number: 99.6

Kindly consider the entry below.
I have this binder here, B2 (antibody, human IgG1, kappa, L234A L235A, V domains shown, Humanized monoclonal antibody; also called anti-CD73 antibody B2) VH: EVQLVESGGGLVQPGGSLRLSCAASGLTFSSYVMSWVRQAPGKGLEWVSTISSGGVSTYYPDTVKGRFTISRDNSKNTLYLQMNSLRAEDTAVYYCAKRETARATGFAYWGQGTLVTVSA VL: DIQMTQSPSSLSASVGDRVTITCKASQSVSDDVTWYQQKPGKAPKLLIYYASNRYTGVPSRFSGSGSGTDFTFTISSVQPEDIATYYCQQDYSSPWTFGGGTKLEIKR , and I need its recorded CD8 T cell proliferation [% of control], Donor D, 1 nM antibody. 98.5

Just for reference, patent US20190352420A1 is where these values come from.
